- experimental-target: Cytochrome P450 2D6 (Homo sapiens, UniProt P10635)
- Sequence (P10635 whole entry): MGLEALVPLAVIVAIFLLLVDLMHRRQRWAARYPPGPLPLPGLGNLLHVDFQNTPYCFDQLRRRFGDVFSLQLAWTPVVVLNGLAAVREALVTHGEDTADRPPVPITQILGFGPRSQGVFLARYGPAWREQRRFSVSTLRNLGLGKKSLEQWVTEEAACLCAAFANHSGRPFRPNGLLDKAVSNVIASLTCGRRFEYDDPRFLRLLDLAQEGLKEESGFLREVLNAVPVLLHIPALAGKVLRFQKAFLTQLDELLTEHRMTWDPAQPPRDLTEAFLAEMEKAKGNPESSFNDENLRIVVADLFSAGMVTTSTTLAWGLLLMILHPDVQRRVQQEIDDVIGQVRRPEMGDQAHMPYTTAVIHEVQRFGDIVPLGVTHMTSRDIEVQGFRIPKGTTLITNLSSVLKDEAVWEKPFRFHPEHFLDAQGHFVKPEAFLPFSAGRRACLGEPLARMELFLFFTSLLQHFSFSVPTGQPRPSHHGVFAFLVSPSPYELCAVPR
- experiment-summary: Inhibition of CYP2D6 (unknown origin)
- Format: ADME
reported-endpoint: IC50

Entry under review: CCOC[C@@H](CC(C)C)NC(=O)[C@@H]1CNC[C@H](C(=O)N(c2ccc(C(C)C)cn2)C2CC2)[C@@H]1O . Reported IC50?
> 30 µM

====

- experiment-summary: Oral bioavailability in Sprague-Dawley rat at 6 mg/kg
- Type: ADME, organism-based
- condition-info: in vivo
Property: bioavailability; scope: individual compounds
Report the value in % with no unit label.

Look over these answered cases.
COCCCn1cc(CN(C(=O)[C@H]2CNC[C@@H](C(=O)N[C@@H](CO)CC(C)C)C2)C2CC2)c2ccccc21 : 0.4
CCOC[C@@H](CC(C)C)NC(=O)[C@@H]1CNC[C@H](C(=O)N(c2cc3c(cc2F)OC(C)(C)C(=O)N3CCCOC)C2CC2)C1.Cl : 20

The record that follows has no bioavailability shown yet.
Entry under review: COCCCn1cc(CN(C(=O)[C@H]2CNC[C@@H](C(=O)NCCC(C)C)C2)C2CC2)c2ccccc21 . Reported bioavailability?
29

====

Property: AUC/dose; scope: individual compounds
- Tested on: Rattus norvegicus
- experiment-summary: Dose normalized AUC (infinity) in Sprague-Dawley rat at 6 mg/kg, po
- Assay type: ADME, organism-based
- Parameters: dose 6 mg/kg, route oral
- condition-info: in vivo
Report the value in nM·h/mg/kg with no unit label.

Look over these answered cases.
CCOC[C@@H](CC(C)C)NC(=O)[C@@H]1CNC[C@H](C(=O)N(c2ccc(C(C)C)cn2)C2CC2)C1.O=C(O)/C=C/C(=O)O : 296
CCOC[C@@H](CC(C)C)NC(=O)[C@@H]1CNC[C@H](C(=O)N(c2cc3c(cc2F)OC(C)(C)C(=O)N3CCCOC)C2CC2)C1.Cl : 49
CCOC[C@@H](CC(C)C)NC(=O)[C@@H]1CNC[C@H](C(=O)N(c2cc(OC)c(C(C)C)cn2)C2CC2)C1.O=C(O)C(O)C(O)C(=O)O : 324

Entry under review: CCOC[C@@H](CC(C)C)NC(=O)[C@@H]1CNC[C@H](C(=O)N(c2cc(OCC)c(CC)cn2)C2CC2)[C@@H]1O.O=C(O)/C=C/C(=O)O . Reported AUC/dose?
1630

Entry under review: CCOC[C@@H](CC(C)C)NC(=O)[C@@H]1CNC[C@H](C(=O)N(c2cc(OCC)c(CC)cn2)C2CC2)C1.O=C(O)C(O)C(O)C(=O)O . Reported AUC/dose?
690

Entry under review: CCOC[C@@H](CC(C)C)NC(=O)[C@@H]1CNC[C@H](C(=O)N(c2ccc(C(C)C)cn2)C2CC2)[C@@H]1O.O=C(O)CCC(=O)O . Reported AUC/dose?
552

Entry under review: CCOC[C@@H](CC(C)C)NC(=O)[C@@H]1CNC[C@H](C(=O)N(c2cc(OC)c(C(C)C)cn2)C2CC2)[C@@H]1O . Reported AUC/dose?
511

Entry under review: CCOC[C@@H](CC(C)C)NC(=O)[C@@H]1CNC[C@H](C(=O)N(c2cc(OCCCOC)c(C(C)C)cn2)C2CC2)C1.Cl . Reported AUC/dose?
93

====

- experimental-target: Pepsin A (Homo sapiens)
- Sequence (P0DJD9 whole entry): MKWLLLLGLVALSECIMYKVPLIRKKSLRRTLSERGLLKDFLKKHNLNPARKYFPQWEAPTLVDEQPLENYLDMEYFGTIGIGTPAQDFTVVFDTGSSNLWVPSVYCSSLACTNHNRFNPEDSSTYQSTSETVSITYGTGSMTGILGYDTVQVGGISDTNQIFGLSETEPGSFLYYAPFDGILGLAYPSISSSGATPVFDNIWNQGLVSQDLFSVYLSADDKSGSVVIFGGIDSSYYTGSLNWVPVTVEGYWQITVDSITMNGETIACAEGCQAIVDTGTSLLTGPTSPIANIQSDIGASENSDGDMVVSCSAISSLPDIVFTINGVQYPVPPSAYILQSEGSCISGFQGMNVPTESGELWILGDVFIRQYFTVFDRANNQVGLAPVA
- experiment-summary: Inhibition of human recombinant pepsinogen A expressed in Escherichia coli using fluorescence-quenched Dabcyl-E-R-Nle-F-L-S-F-P-EDANS substrate by fluorimetric assay
reported-endpoint: IC50

Entry under review: CCOC[C@@H](CC(C)C)NC(=O)[C@@H]1CNC[C@H](C(=O)N(c2ccc(C(C)C)cn2)C2CC2)[C@@H]1O . Reported IC50?
> 30 µM

====

- Test system: Rattus norvegicus
- experiment-summary: Dose normalized Cmax inSprague-Dawley rat at 6 mg/kg, po
- Assay type: ADME, organism-based, Sprague-Dawley
- Parameters: dose 6 mg/kg, route oral
- condition-info: in vivo
Property: Cmax/dose; scope: individual compounds
Report the value in nM/mg/kg with no unit label.

Look over these answered cases.
CCOC[C@@H](CC(C)C)NC(=O)[C@@H]1CNC[C@H](C(=O)N(c2cc3c(cc2F)OC(C)(C)C(=O)N3CCCOC)C2CC2)C1.Cl : 12
CCOC[C@@H](CC(C)C)NC(=O)[C@@H]1CNC[C@H](C(=O)N(c2cc(OC)c(C(C)C)cn2)C2CC2)C1.O=C(O)C(O)C(O)C(=O)O : 68
CCOC[C@@H](CC(C)C)NC(=O)[C@@H]1CNC[C@H](C(=O)N(c2cc(OCC)c(CC)cn2)C2CC2)C1.O=C(O)C(O)C(O)C(=O)O : 155

The record that follows has no Cmax/dose shown yet.
Entry under review: CCOC[C@@H](CC(C)C)NC(=O)[C@@H]1CNC[C@H](C(=O)N(c2cc(OCC)c(CC)cn2)C2CC2)[C@@H]1O.O=C(O)/C=C/C(=O)O . Reported Cmax/dose?
252

====

- experiment-summary: Clearance in human liver microsomes
- Type: ADME
- condition-info: read-out: CLH
reported-endpoint: microsomal CLint (µL/min/mg)
Report the value in µL/min/mg with no unit label.

CCOC[C@@H](CC(C)C)NC(=O)[C@@H]1CNC[C@H](C(=O)N(c2cc(OCCCOC)c(C(C)C)cn2)C2CC2)C1.Cl : 53
CCOC[C@@H](CC(C)C)NC(=O)[C@@H]1CNC[C@H](C(=O)N(c2cc(OCC)c(CC)cn2)C2CC2)[C@@H]1O : 22

Entry under review: COCCCn1cc(CN(C(=O)[C@H]2CNC[C@@H](C(=O)Nc3c(C)cccc3OC)C2)C2CC2)c2ccccc21 . Reported microsomal CLint?
679

====

This document collects IC50 values reported for Voltage-gated inwardly rectifying potassium channel KCNH2 (Homo sapiens).

Look over these answered cases.
CCOC[C@@H](CC(C)C)NC(=O)[C@@H]1CNC[C@H](C(=O)N(c2cc(OCC)c(CC)cn2)C2CC2)C1 : > 30 µM
CCOC[C@@H](CC(C)C)NC(=O)[C@@H]1CNC[C@H](C(=O)N(c2ccc(C(C)C)cn2)C2CC2)[C@@H]1O : > 30 µM

The record that follows has no IC50 shown yet.
Entry under review: CCOC[C@@H](CC(C)C)NC(=O)[C@@H]1CNC[C@H](C(=O)N(c2cc(OC)c(C(C)C)cn2)C2CC2)C1 . Reported IC50?
> 30 µM
